Dear all, I have gathered published pIC50 values for human DGAT2 (hDGAT2) (Homo sapiens, UniProt Q96PD7); the list follows.
Formally, pIC50 is defined as -log10 of the concentration c, with c in mol/L.

Reference set, count: 2
SMILES ENTRY: CC1(NC(=O)c2nn3ccc(Oc4ncc(F)cc4OCC(F)(F)F)cc3c2Cl)CCS(=O)(=O)CC1
READOUT TYPE: pIC50
MEASURED: 8.14

SMILES ENTRY: Cc1c(C(=O)NC2(C)CCC(F)(F)CC2)nc2ccc(Oc3ncccc3OCC(F)F)cn12
READOUT TYPE: pIC50
MEASURED: 8.17

Please find the next compound below.
Field pIC50 (system: human DGAT2 (hDGAT2) (Homo sapiens, UniProt Q96PD7)) for entry `Cc1cc(C(=O)N[C@@]2(C)CCS(=O)(=O)C2)cc2c1c(-c1cccc(OC(F)F)c1)nn2C1CCOCC1` = 7.89
